// reported Binding Signal (fold over 6E7 Parental antibody) per item
# ASSAY TARGET: T1, human TREM2 (human, UniProt Q9NZC2 19-174, limits assumed)
# T1 construct: also called triggering receptor expressed on myeloid cells 2
# T1 sequence: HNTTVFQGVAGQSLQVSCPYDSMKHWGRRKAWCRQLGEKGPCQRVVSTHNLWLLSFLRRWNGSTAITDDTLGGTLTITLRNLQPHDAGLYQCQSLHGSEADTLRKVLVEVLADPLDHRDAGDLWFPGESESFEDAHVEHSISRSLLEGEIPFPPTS
# TEST METHOD NOTES: 2nd screen 100 nM
Give your result as the value with the unit written after it.

binder="V57 (antibody, V domains shown) VH: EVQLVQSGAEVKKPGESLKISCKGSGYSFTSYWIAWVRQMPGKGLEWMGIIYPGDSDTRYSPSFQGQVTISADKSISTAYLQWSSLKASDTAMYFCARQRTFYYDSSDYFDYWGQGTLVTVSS VL: DIQMTQSPSSVSASVGDRVTITCAASQGISSWLAWYQQKPGKAPKLLIYAASSLQNGVPSRFSGSGSGTDFTLTISSLQPEDFATYFCQQADSFPRTFGQGTKLEIK" observed_measurement="0.85 fold"

Query binder follows.
Tell us which Binding Signal (fold over 6E7 Parental antibody) value is on record for V22 (antibody, V domains shown) VH: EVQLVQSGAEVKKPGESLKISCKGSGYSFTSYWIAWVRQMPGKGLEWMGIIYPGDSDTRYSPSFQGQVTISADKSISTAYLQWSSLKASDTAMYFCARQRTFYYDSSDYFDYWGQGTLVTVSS VL: DIQMTQSPSSVSASVGDRVTITCRASQGISSWLAWYQQKPGKAPKLLIYRASSLQNGVPSRFSGSGSGTDFTLTISSLQPEDFATYFCQQADSFPRTFGQGTKLEIK
0.71 fold
